Property: relative IC50; scope: individual molecules
System: T-47D Tam2
Assay: relative IC50 (midpoint of fitted logistic curve, plateau may be below 50% inhibition; CellTiter-Glo viability); higher = less potent
Settings: 4-OH-tamoxifen in medium 1 µM; 72 h

Recorded results for 3 molecules are shown here.
>>> observed("C[C@]1(c2nc3c(C(N)=O)cccc3[nH]2)CCCN1 [Veliparib (ABT-888)]")
"> 10 µM"
>>> observed("CNNCc1ccc(C(=O)NC(C)C)cc1 [Procarbazine]")
"> 10 µM"
>>> observed("Cc1cnc(NC(=O)Nc2cc(Br)c(C)cc2OC[C@@H]2CNCCO2)cn1")
"> 1 µM"

I looked up Nc1nc2[nH]cnc2c(=S)[nH]1 [Thioguanine] and its relative IC50 for T-47D Tam2 was 2.66 µM

I looked up N#Cc1ccc(C(c2ccc(C#N)cc2)n2cncn2)cc1 [Letrozole] and its relative IC50 for T-47D Tam2 was > 10 µM

The reported numbers originate from the supplement of paper PMC4932681.
